study.system: IRAK4 (Homo sapiens, UniProt Q9NWZ3)
protocol: ALE THP1 HTRF (IRAK4 degradation in THP1 cells, HTRF with anti-IRAK4 antibodies)
Assay type: cell-based
Design: THP1 Homogeneous Time Resolved Fluorescence (ALE THP1 HTRF) Procedure; endogenous in cells; host or cells: THP1
assay.conditions: THP1 cell lysate, read-out: ALE THP1 HTRF EC50
Counter-ions that a name gives are not always drawn.
reported.property: DC50 (nM)
Just the number in nM, nothing appended.

| compound | result.units | DC50 |
| --- | --- | --- |
| N[C@@H]1C[C@@H](F)CN(c2ccn3ncc(C(=O)Nc4cn([C@H]5CC[C@H](C(=O)NC6CCN(c7ccc(C8CCC(=O)NC8=O)nc7)CC6)CC5)nc4C(F)F)c3n2)C1 (stereo partly drawn) | nM | 6 |
| N[C@@H]1C[C@@H](F)CN(c2ccn3ncc(C(=O)Nc4cn([C@H]5CC[C@H](CN6CCC(CNc7ccc(C8CCC(=O)NC8=O)cc7)CC6)CC5)nc4C(F)(F)F)c3n2)C1 (stereo partly drawn) | nM | 177 |

Continue with the next compound.
Task: Which DC50 reading was recorded for the compound N[C@@H]1C[C@@H](F)CN(c2ccn3ncc(C(=O)Nc4cn(C5CCN(CCN6CCN(c7ccc(C8CCC(=O)NC8=O)cc7)CC6)CC5)nc4C(F)F)c3n2)C1 (stereo partly drawn) [Compound P-27, trihydrochloride] ?
Result: 10

* * *

study.system: IRAK4 (Homo sapiens)
Sequence (Q9NWZ3 1-460): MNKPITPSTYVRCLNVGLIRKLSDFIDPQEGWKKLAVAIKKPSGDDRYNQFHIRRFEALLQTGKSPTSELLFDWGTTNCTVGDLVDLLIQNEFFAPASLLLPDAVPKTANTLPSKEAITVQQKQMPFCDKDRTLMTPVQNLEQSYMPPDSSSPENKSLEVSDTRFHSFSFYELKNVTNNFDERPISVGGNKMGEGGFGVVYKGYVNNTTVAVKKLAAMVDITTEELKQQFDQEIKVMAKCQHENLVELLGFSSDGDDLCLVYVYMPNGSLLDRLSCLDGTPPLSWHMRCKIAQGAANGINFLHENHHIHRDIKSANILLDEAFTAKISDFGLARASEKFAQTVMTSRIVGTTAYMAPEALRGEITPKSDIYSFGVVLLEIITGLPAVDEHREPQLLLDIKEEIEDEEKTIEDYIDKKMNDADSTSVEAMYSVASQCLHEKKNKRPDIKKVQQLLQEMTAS
protocol: IRAK4 PhosphoSens Biochemical Assay (BIOCHEM)
assay.conditions: 200 μM ATP; 10 μM peptide substrate AQT0326; 1 nM IRAK4; room temperature; 240 minutes
Counter-ions that a name gives are not always drawn.
Measured IC50 by item
Quick note: give the figure in nM, leave out the unit.

Examples from the recorded data:
| molecule | IC50 [nM] |
| --- | --- |
| N[C@@H]1C[C@@H](F)CN(c2ccn3ncc(C(=O)Nc4cn([C@H]5CC[C@H](CN6CCN(c7ccc(C8CCC(=O)NC8=O)cc7)CC6)CC5)nc4C(F)(F)F)c3n2)C1 (stereo partly shown) [Compound P-10] | 0.6 |
| N[C@@H]1C[C@@H](F)CN(c2ccn3ncc(C(=O)Nc4cn([C@H]5CC[C@H](C(=O)N6CCC(CNc7ccc(C8CCC(=O)NC8=O)cc7)CC6)CC5)nc4C(F)(F)F)c3n2)C1 (stereo partly shown) [Compound P-2, hydrochloride] | 0.3 |

Task: What value of measured IC50 is listed for N[C@@H]1C[C@@H](F)CN(c2ccn3ncc(C(=O)Nc4cn([C@H]5CC[C@H](CN6CCC(CNc7ccc(C8CCC(=O)NC8=O)cc7)CC6)CC5)nc4C(F)(F)F)c3n2)C1 (stereo partly shown) [Compound P-3] ?
Result: 0.3

Task: Name the recorded IC50 for N[C@@H]1C[C@@H](F)CN(c2ccn3ncc(C(=O)Nc4cn([C@H]5CC[C@H](C(=O)N6CCC(Nc7cccc(C8CCC(=O)NC8=O)c7)CC6)CC5)nc4C(F)(F)F)c3n2)C1 (stereo partly shown) [Compound P-9] .
Result: 0.3

Task: Can you look up the measured IC50 of N[C@@H]1C[C@@H](F)CN(c2ccn3ncc(C(=O)Nc4cn([C@H]5CC[C@H](CCN6CCN(c7ccc(C8CCC(=O)NC8=O)cc7)CC6)CC5)nc4C(F)(F)F)c3n2)C1 (stereo partly shown) [Compound P-11, hydrochloride] for me?
Result: 0.4

Task: For the molecule shown here, N[C@@H]1C[C@@H](F)CN(c2ccn3ncc(C(=O)Nc4cn([C@H]5CC[C@H](C(=O)N6CCC(CNc7cccc(C8CCC(=O)NC8=O)c7)CC6)CC5)nc4C(F)(F)F)c3n2)C1 (stereo partly shown) [Compound P-1, hydrochloride salt] , give the reported IC50.
Result: 0.4

Task: Looking for the measured IC50 of N[C@@H]1C[C@@H](F)CN(c2ccn3ncc(C(=O)Nc4cn([C@H]5CC[C@H](C(=O)N6CCC(Nc7ccc(C8CCC(=O)NC8=O)cc7)CC6)CC5)nc4C(F)(F)F)c3n2)C1 (stereo partly shown) [Compound P-7] , can you help?
Result: 0.3
